Origin of measurements: patent US4734416A

testedTarget: enucleated ileum of a guinea pig (Cavia porcellus)
Construct: the tissue of ileum is cut to a length of 2.5 to 3.0 cm and suspended in an organ bath; from tissue; host or cells: isolated ileum from the ileocecal region of male guinea pig
testProtocol: Antihistamine activity test in vitro (enucleated guinea pig ileum, histamine retraction, pA2 by Van Rossam method)
experimentalContext: 10^-6 g/ml test compound, 5 minutes before histamine, 36° C.
Structures can show the parent of a compound that is named as a salt.
Binning rule for recorded Kb: zone 1: < 0.3 nM; zone 2: ≥ 0.3 nM and < 1 nM; zone 3: ≥ 1 nM

Reference set (3 entries):
O=C1CCc2cc(Cl)c(OCCCN3CCN(c4ccccc4)CC3)c(Br)c2N1 [Compound 28, dihydrochloride]    zone 1
CN1C(=O)CCc2c(OCC(O)CN3CCN(c4ccccc4)CC3)cccc21 (stereo not drawn) [Compound 7, monohydrochloride]    zone 1
CN1C(=O)CCc2c(OCCCN3CCN(c4ccccc4)CC3)cccc21 [Compound 9, monohydrochloride]    zone 1

Band assignment needed for CC(=O)N1CCN(CCCOc2ccc3c(c2)NC(=O)CC3)CC1 please.
zone 3

Param item: O=C1CCc2ccc(OCC(O)CN3CCN(c4ccccc4)CC3)cc2N1 (stereo not drawn) [Compound 2, monohydrochloride]
zone 3

Param item: Cc1ccc(N2CCN(CCCOc3ccc4c(c3)NC(=O)CC4)CC2)cc1
zone 2

Param item: CCCCCCN1C(=O)CCc2ccc(OCCCN3CCN(c4ccccc4)CC3)cc21 [Compound 38, dihydrochloride]
zone 3

Param item: CC1CN(CCCOc2ccc3c(c2)NC(=O)CC3)CCN1c1ccc(Cl)cc1 (stereo not drawn) [Compound 18, dihydrochloride]
zone 3

Param item: O=C1CCc2ccc(OCCCN3CCN(CCO)CC3)cc2N1
zone 3

Param item: CC(C)N1C(=O)CCc2ccc(OCCCN3CCN(c4ccccc4)CC3)cc21 [Compound 23, dihydrochloride]
zone 2

Param item: O=C1CCc2ccc(OCCCN3CCN(c4cccc(F)c4)CC3)cc2N1
zone 1

Param item: O=C1CCc2ccc(OCCCN3CCN(c4ccc(Cl)cc4)CC3)cc2N1
zone 1

Param item: O=C1CCc2ccc(OCCCN3CCN(Cc4ccccc4)CC3)cc2N1
zone 2

Param item: CC(=O)OC(COc1cccc2c1CCC(=O)N2)CN1CCN(c2ccccc2)CC1 (stereo not drawn)
zone 3

---

testProtocol: in vivo
experimentalContext: mouse, iv, female mice
Counter-ions that a name gives are not always drawn.
quantity: LD50 (mg/kg)
Kindly answer with a numeric value in mg/kg, unit omitted.

Below are worked cases with known answers.
O=C1CCc2ccc(OCCCN3CCN(c4ccccc4)CC3)cc2N1 [Compound 6, dihydrochloride]    250
O=C1CCc2c(cccc2OCCCN2CCCN(c3ccccc3)CC2)N1 [Compound 31]    248
COc1ccccc1N1CCN(CCCOc2ccc3c(c2)NC(=O)CC3)CC1 [Compound 17]    216
CN1C(=O)CCc2c(OCC(O)CN3CCN(c4ccccc4)CC3)cccc21 (centres unmarked) [Compound 7, monohydrochloride]    432

Turning to the following compound.
Give the measured LD50 of O=C1CCc2ccc(OCCCN3CCN(c4cccc(Cl)c4)CC3)cc2N1 [Compound 39] .
293

---

testedTarget: enucleated ileum of a guinea pig (Cavia porcellus, UniProt P31389)
Construct: the tissue of ileum is cut to a length of 2.5 to 3.0 cm and suspended in an organ bath; from tissue; host or cells: isolated ileum from the ileocecal region of male guinea pig
Sequence (P31389 whole entry): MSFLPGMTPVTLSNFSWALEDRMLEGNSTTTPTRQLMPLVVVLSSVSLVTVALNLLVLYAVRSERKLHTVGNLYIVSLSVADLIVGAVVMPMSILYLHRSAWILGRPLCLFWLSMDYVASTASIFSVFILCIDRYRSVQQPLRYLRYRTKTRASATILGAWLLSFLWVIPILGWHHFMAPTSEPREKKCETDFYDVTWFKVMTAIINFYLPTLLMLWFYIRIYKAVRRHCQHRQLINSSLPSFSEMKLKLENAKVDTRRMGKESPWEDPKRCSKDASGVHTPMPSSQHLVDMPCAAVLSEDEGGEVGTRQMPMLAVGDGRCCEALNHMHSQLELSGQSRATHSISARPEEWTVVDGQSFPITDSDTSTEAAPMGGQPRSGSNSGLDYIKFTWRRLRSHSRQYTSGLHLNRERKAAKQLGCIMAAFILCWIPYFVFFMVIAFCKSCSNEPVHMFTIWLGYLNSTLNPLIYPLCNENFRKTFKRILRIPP
testProtocol: Antihistamine activity test in vitro (enucleated guinea pig ileum, histamine retraction, pA2 by Van Rossam method)
experimentalContext: 10^-6 g/ml test compound, 5 minutes before histamine, 36° C.
Counter-ions that a name gives are not always drawn.
quantity: Kb
Your reply should be a number followed by the unit it is expressed in.

Below are worked cases with known answers.
O=C1CCc2ccc(OCCCN3CCN(C(=O)c4ccccc4)CC3)cc2N1    2.63 nM
COc1cc(N2CCN(CCCOc3ccc4c(c3)NC(=O)CC4)CC2)cc(OC)c1OC [Compound 29, dihydrochloride]    2.69 nM
COc1cc(C(=O)OC(COc2cccc3c2CCC(=O)N3)CN2CCN(c3ccccc3)CC2)cc(OC)c1OC (centres unmarked)    0.912 nM
O=C1CCc2c(c(Cl)cc(Cl)c2OCC(O)CN2CCN(c3ccccc3)CC2)N1 (centres unmarked) [Compound 4, monohydrochloride]    1.12 nM
O=C1CCc2ccc(OCCCN3CCN(c4cccc(Cl)c4)CC3)cc2N1    0.182 nM

Give the measured Kb of O=C1CCc2c(cccc2OCC(O)CN2CCN(c3ccccc3)CC2)N1 (centres unmarked) [Compound 1, monohydrochloride] .
8.32 nM

Param item: O=c1ccc2cc(OCCCN3CCN(c4ccccc4)CC3)ccc2[nH]1
10.2 nM

Param item: O=C1CCc2cccc(OCCCN3CCN(c4ccccc4)CC3)c2N1
10.2 nM

---

testedTarget: enucleated ileum of a guinea pig (Cavia porcellus, UniProt P31389)
Construct: the tissue of ileum is cut to a length of 2.5 to 3.0 cm and suspended in an organ bath; from tissue; host or cells: isolated ileum from the ileocecal region of male guinea pig
testProtocol: Antihistamine activity test in vitro (enucleated guinea pig ileum, histamine retraction, pA2 by Van Rossam method)
experimentalContext: 10^-6 g/ml test compound, 5 minutes before histamine, 36° C.
Where a name gives a salt, the structure may show the parent alone.
Note to self: values exactly at 0.6 nM are T. So Kb at or above 0.6 nM is T, below is F.

Reference set (5 entries):
O=c1cc(-c2ccccc2)c2ccc(OCCCN3CCN(c4ccccc4)CC3)cc2[nH]1    T
COc1ccccc1N1CCN(CCCOc2ccc3c(c2)NC(=O)CC3)CC1    T
O=C1CCc2ccc(OCCCN3CCN(c4ccccc4)CC3)cc2N1Cc1ccccc1    T
CC(=O)OCCN1CCN(CCCOc2ccc3c(c2)NC(=O)CC3)CC1    T
Cc1cc(=O)[nH]c2cc(OCCCN3CCN(c4ccccc4)CC3)ccc12    F

Check this compound for Kb at or above 0.6 nM: O=C1CCc2c(OCC(O)CN3CCN(c4ccc(Cl)cc4)CC3)ccc(Cl)c2N1 (centres unmarked) [Compound 3, monohydrochloride]
T

---

testProtocol: in vivo
experimentalContext: mouse, po, male mice
Counter-ions that a name gives are not always drawn.
So basically: is LD50 under 900 mg/kg? Then class 1. Not under? Then class 0.

O=C1CCc2c(cccc2OCCCN2CCCN(c3ccccc3)CC2)N1    class 1
O=C1CCc2ccc(OCCCN3CCN(c4cccc(Cl)c4)CC3)cc2N1    class 0

With those in mind, consider the next compound.
Strictly below 900 mg/kg: is that where LD50 of CN1C(=O)CCc2c(OCC(O)CN3CCN(c4ccccc4)CC3)cccc21 (centres unmarked) [Compound 7, monohydrochloride] sits?
class 0

---

testProtocol: in vivo
experimentalContext: mouse, po, female mice
Structures can show the parent of a compound that is named as a salt.
So basically: is LD50 under 900 mg/kg? Then y. Not under? Then n.

O=C1CCc2ccc(OCCCN3CCN(c4cccc(Cl)c4)CC3)cc2N1    n

Strictly below 900 mg/kg: is that where LD50 of COc1ccccc1N1CCN(CCCOc2ccc3c(c2)NC(=O)CC3)CC1 sits?
y

Param item: CN1C(=O)CCc2c(OCC(O)CN3CCN(c4ccccc4)CC3)cccc21 (centres unmarked) [Compound 7, monohydrochloride]
n

---

testProtocol: in vivo
experimentalContext: mouse, iv, male mice
Description: Mice of ddy-strain having 20-22 g of body weight are used. One test group consists of 10 mice. Oral administration: Compound to be tested is suspended in 1% Gummi Arabicum physiological NaCl aqueous solution. Intravenuous administration: Compound to be tested is dissolved in 50% propyleneglycol aqueous solution.
Where a name gives a salt, the structure may show the parent alone.
quantity: LD50
Your reply should be a number followed by the unit it is expressed in.

Below are worked cases with known answers.
O=C1CCc2c(cccc2OCCCN2CCCN(c3ccccc3)CC2)N1    256 mg/kg
CN1C(=O)CCc2c(OCC(O)CN3CCN(c4ccccc4)CC3)cccc21 (centres unmarked) [Compound 7, monohydrochloride]    424 mg/kg
O=C1CCc2ccc(OCCCN3CCN(c4cccc(Cl)c4)CC3)cc2N1    310 mg/kg
COc1ccccc1N1CCN(CCCOc2ccc3c(c2)NC(=O)CC3)CC1    218 mg/kg

Turning to the following molecule.
Give the measured LD50 of O=C1CCc2ccc(OCCCN3CCN(c4ccccc4)CC3)cc2N1 [Compound 6, dihydrochloride] .
240 mg/kg

---

testProtocol: Activity for inhibiting fighting behavior of mouse isolated singly for a long period of time
Format: in vivo, mouse (male, ddy-strain)
experimentalContext: positive if fighting no longer than 5 seconds in a minute, range in parentheses, read-out: ED50 (inhibition of fighting behavior)
Where a name gives a salt, the structure may show the parent alone.
quantity: ED50
Your reply should be a number followed by the unit it is expressed in.

Below are worked cases with known answers.
O=C1CCc2c(cccc2OCCCN2CCN(c3ccccc3)CC2)N1 [Compound 5, dihydrochloride]    1.28 mg/kg
O=c1ccc2ccc(OCCCN3CCN(c4ccccc4)CC3)cc2[nH]1    0.78 mg/kg

Give the measured ED50 of COc1ccccc1N1CCN(CCCOc2ccc3c(c2)NC(=O)CC3)CC1 .
0.92 mg/kg

Param item: CN1C(=O)CN=C(c2ccccc2)c2cc(Cl)ccc21 [Diazepam, reference compound]
7.29 mg/kg

Param item: O=C1CCc2ccc(OCCCN3CCN(c4ccccc4)CC3)cc2N1 [Compound 6, dihydrochloride]
0.7 mg/kg

Param item: CN1C(=O)CCc2c(OCCCN3CCN(c4ccccc4)CC3)cccc21 [Compound 9, monohydrochloride]
1.52 mg/kg
